- experiment: Fluorescence spectrum and fluorescence quantum yield of CTMD analogs at 750 nM (Example 1)
- Assay type: physicochemical
- settings: 67 mM phosphate buffer pH 7.4, 750 nM, 25° C., excited at 330 nm, relative to quinine sulfate 0.55
quantity kind: Fluorescence quantum yield (PB)

// worked examples, Fluorescence quantum yield (PB) included
* CC(=O)Oc1ccc(-c2cnc(NS(=O)(=O)Cc3ccccc3)c(Cc3ccccc3)n2)cc1 [c-32] | 0.239
* CC(=O)Oc1ccc(-c2cnc(NC(=O)Cc3ccccc3)c(Cc3ccccc3)n2)cc1 [c-30] | 0.040
* COc1ccc(-c2cnc(N(S(=O)(=O)Cc3ccccc3)S(=O)(=O)Cc3ccccc3)c(Cc3ccccc3)n2)cc1 [c-21] | 0.059
* COc1ccc(-c2cnc(NC(C)=O)c(Cc3ccccc3)n2)cc1 [c-24] | 0.199
* CC(=O)Nc1ncc(-c2ccc(OC(C)=O)cc2)nc1Cc1ccccc1 [c-33] | 0.154
* CS(=O)(=O)Nc1ncc(-c2ccc(O)cc2)nc1Cc1ccccc1 [c-34] | 0.096
* COc1ccc(-c2cnc(NS(=O)(=O)Cc3ccccc3)c(Cc3ccccc3)n2)cc1 [c-18] | 0.147
* COc1ccc(-c2cnc(NC(=S)Cc3ccccc3)c(Cc3ccccc3)n2)cc1 [c-17] | 0.003

(1) O=S(=O)(Cc1ccccc1)N(c1ncc(-c2ccccc2)nc1Cc1ccccc1)S(=O)(=O)Cc1ccccc1 [c-42]
(2) O=S(=O)(Cc1ccccc1)Nc1ncc(-c2ccc(O)cc2)nc1Cc1ccccc1 [c-15]
(3) CC(=O)Oc1ccc(CC(=O)Nc2ncc(-c3ccc(OC(C)=O)cc3)nc2Cc2ccccc2)cc1 [c-29]
(4) O=C(Cc1ccccc1)Nc1ncc(-c2ccc(O)cc2)nc1Cc1ccccc1 [c-13]
(5) O=S(=O)(Cc1ccccc1)Nc1ncc(-c2ccccc2)nc1Cc1ccccc1 [c-37]
QUERY: Reorder the items by Fluorescence quantum yield (PB), least to greatest. When ranking, write the labels in the order the request describes.
RESULT: 4, 1, 3, 2, 5
(4: 0.003, 1: 0.011, 3: 0.029, 2: 0.137, 5: 0.227)

(A) CC(=O)Oc1ccc(-c2cnc(N(S(C)(=O)=O)S(C)(=O)=O)c(Cc3ccccc3)n2)cc1 [c-39]
(B) COc1ccc(-c2cnc(NC(=O)Cc3ccccc3)c(Cc3ccccc3)n2)cc1 [c-16]
(C) CC(=O)Oc1ccc(-c2cnc(N(S(=O)(=O)Cc3ccccc3)S(=O)(=O)Cc3ccccc3)c(Cc3ccccc3)n2)cc1 [c-20]
(D) O=C(Cc1ccc(O)cc1)Nc1ncc(-c2ccc(O)cc2)nc1Cc1ccccc1 [c-4, reference compound]
QUERY: Place the items in sequence of falling Fluorescence quantum yield (PB). When ranking, write the labels in the order the request describes.
RESULT: B, A, C, D
